- measured target: Z A1AT (Homo sapiens, UniProt P01009, E366K)
- Construct: expressed in transfected cells; host or cells: HEK-Z (human embryonic kidney cells stably transfected with the human Z A1AT gene)
- Sequence (P01009 25-418 E366K): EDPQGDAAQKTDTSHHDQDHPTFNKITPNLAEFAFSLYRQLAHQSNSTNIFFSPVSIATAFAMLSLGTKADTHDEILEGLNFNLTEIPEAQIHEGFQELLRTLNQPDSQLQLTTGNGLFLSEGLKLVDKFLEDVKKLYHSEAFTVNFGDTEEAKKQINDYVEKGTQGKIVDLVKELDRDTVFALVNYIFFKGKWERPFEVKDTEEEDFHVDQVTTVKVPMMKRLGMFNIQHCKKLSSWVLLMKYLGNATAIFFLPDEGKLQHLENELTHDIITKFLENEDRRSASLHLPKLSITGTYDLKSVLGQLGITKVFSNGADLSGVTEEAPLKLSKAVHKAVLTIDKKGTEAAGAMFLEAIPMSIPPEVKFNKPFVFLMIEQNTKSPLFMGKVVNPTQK
- protocol summary: A1AT cell secretion assay using HEK-Z cells
- Type: cell-based
- condition label: 300 nM, 48 h, supernatant A1AT by ELISA, read-out: Median A1AT % increase over vehicle at 300 nM
recorded endpoint: activation at 0.3 µM (%)
Report the value in % with no unit label.

Worked cases, activation at 0.3 µM given:
get_value(item= CC(C)N(C)C(=O)c1ccc(Cn2c(=O)cc[nH]c2=O)cc1 [Example 7] , readout=activation at 0.3 µM) returns 170

get_value(item= CN(C)C(=O)c1ccc(Cn2ccc(=O)[nH]c2=O)cc1 [Example 1] , readout=activation at 0.3 µM) returns 130

get_value(item= CN(C)C(=O)c1ccc(Cn2c(=O)cc[nH]c2=O)cc1 [Example 5] , readout=activation at 0.3 µM) returns 140

get_value(item= CNC(=O)c1ccc(Cn2ccc(=O)[nH]c2=O)cc1 [Example 2] , readout=activation at 0.3 µM) returns 175

get_value(item= CC(C)NC(=O)c1ccc(Cn2ccc(=O)[nH]c2=O)cc1 [Example 3] , readout=activation at 0.3 µM) returns 190

Next:
get_value(item= CCN(C)C(=O)c1ccc(Cn2c(=O)cc[nH]c2=O)cc1 [Example 6] , readout=activation at 0.3 µM) returns 190

get_value(item= O=C(NCc1ccc(F)cc1)c1ccc(Cn2ccc(=O)[nH]c2=O)cc1 [Example 4] , readout=activation at 0.3 µM) returns 170

get_value(item= CN(Cc1ccccc1)C(=O)c1ccc(Cn2c(=O)cc[nH]c2=O)cc1 [Example 8] , readout=activation at 0.3 µM) returns 175

get_value(item= CN(CC(F)(F)F)C(=O)c1ccc(Cn2c(=O)cc[nH]c2=O)cc1 [Example 9] , readout=activation at 0.3 µM) returns 180
